Molecular target: RNA-binding protein pos-1 (Caenorhabditis elegans)
Sequence (G5EF15 whole entry, the tested form may be a part): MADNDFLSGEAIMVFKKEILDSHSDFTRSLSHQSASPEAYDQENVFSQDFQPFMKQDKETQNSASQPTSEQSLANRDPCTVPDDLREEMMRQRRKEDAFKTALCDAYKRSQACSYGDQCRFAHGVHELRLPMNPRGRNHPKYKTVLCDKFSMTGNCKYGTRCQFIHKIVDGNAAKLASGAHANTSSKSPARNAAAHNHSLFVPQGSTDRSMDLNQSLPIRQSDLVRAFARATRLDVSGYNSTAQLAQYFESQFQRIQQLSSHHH
Assay: disruptors of C. elegans POS-1 RNA interaction – biochemical, fluorescence polarization, dose response (AID 1964);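 note: purified POS-1 fused to maltose binding protein made in E. coli; potency of compounds blocking POS-1 binding to fluorescent RNA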
The source made the active and inactive calls.
TEST_READOUT: EC50

// known answers, use as guide
STRUCTURE: COc1cccc(C(=O)NCC(=O)NNc2ncnc(N)c2[N+](=O)[O-])c1
ENDPOINT_RESULT: > 300 µM (inconclusive)
--
STRUCTURE: Cc1ccc(NC(=O)/C(C#N)=C/c2ccc(C)s2)c(C)c1
ENDPOINT_RESULT: 64.2 µM (inconclusive)
--
STRUCTURE: O=C(CCN1C(=O)/C(=C\C=C\c2ccccc2)SC1=S)Nc1ccc(C(=O)O)cc1
ENDPOINT_RESULT: > 300 µM (not active)

Switching to the query record.
Measured EC50 of O=C(NNC(=O)c1cnccn1)c1ccc(Cl)cc1 : 95.9 µM (active)

----------
Test system: BJ
Assay: BJ-TERT fibroblast viability loss – cell-based, RAS-independent, luminescence, dose response (AID 1933)
Assay type: functional
Conditions: Homo sapiens
The source made the active and inactive calls.
Items are presented alongside their recorded EC50.

STRUCTURE: CCN(CC)c1ccc(/C=N/NC(=O)c2ccco2)c(O)c1
TARGET_DESC: BJ
ENDPOINT_RESULT: 2.7 µM (inconclusive)

STRUCTURE: COc1ccc(N2CCc3c(C)nc4c(OC)cccc4c32)cc1
TARGET_DESC: BJ
ENDPOINT_RESULT: 3.48 µM (inconclusive)

STRUCTURE: O=C(/C=C\c1ccco1)Nc1cc([N+](=O)[O-])ccc1F
TARGET_DESC: BJ
ENDPOINT_RESULT: 1.44 µM (active)

Now consider the entry below.
Noted for Cn1nccc1C(=O)N/N=C/c1c(O)ccc2ccccc12 : its EC50 reads 1.61 µM (active)

----------
Biological target: Corticotropin-releasing factor receptor 2/Corticotropin-releasing factor-binding protein (Homo sapiens, UniProt P24387+Q13324)
Sequence (Q13324 whole entry): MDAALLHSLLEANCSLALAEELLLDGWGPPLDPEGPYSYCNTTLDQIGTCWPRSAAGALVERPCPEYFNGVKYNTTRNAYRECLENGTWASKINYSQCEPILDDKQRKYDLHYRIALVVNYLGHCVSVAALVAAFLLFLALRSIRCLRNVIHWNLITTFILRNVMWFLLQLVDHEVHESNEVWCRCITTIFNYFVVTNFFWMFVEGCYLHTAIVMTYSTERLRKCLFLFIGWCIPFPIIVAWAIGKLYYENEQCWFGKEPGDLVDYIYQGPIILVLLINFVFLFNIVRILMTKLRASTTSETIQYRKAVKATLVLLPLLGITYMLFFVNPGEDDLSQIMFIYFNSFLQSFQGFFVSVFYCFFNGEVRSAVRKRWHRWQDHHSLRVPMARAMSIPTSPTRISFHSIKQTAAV
Sequence (P24387 whole entry): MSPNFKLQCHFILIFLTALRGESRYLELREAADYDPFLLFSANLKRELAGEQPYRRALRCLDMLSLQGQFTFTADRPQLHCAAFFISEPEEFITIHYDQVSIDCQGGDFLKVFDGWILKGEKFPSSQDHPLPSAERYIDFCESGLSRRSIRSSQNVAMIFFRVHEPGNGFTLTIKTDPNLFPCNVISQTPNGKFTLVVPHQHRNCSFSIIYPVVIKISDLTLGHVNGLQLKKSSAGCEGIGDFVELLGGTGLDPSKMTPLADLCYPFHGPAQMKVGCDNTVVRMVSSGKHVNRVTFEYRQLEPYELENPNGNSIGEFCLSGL
Test: Dose Response confirmation of uHTS hits for small molecule antagonists of the CRF-binding protein and CRF-R2 receptor complex.
Assay type: functional
Conditions: read-out: IC50_Mean
Activity calls are given as the source filed them.
Response enum: TRUE for active, FALSE for inactive

Request: Please state the recorded outcome for this compound: Cc1cccc(C)c1OCC(=O)Nc1oc(-c2ccccc2)c(-c2ccccc2)c1C#N
Result: FALSE

----------
Target: Nonstructural protein 1 (Influenza A virus, UniProt Q194T2)
Sequence (Q194T2 whole entry): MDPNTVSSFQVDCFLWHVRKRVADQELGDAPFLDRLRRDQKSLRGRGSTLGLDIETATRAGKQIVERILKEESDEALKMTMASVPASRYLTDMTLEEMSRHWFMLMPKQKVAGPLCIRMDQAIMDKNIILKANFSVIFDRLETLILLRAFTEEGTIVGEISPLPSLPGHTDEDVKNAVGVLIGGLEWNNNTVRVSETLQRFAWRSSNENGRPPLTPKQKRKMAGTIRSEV
Type: functional, Influenza A virus (A/California/07/2009(H1N1))
The source made the active and inactive calls.
IC50 by entry:

Example results:
COMPOUND: CN1CC(C(=O)c2ccc(Cl)cc2)C(c2ccc(N(C)C)cc2)C1 (stereo unspecified)
ENDPOINT_RESULT: 43.8 µM (active)
//
COMPOUND: CC(C)Nc1ccc(Nc2ccccc2)cc1
ENDPOINT_RESULT: 19.2 µM (active)
//
COMPOUND: Nc1ccc(OCc2ccccc2)cc1[N+](=O)[O-]
ENDPOINT_RESULT: 58.3 µM (active)

The value of IC50 measured for the compound CCN1/C(=C/c2ccc3cccc(C)c3[n+]2CC)Sc2ccccc21 turned out to be > 100 µM (active)

IC50 for CCN1C(c2ccccc2)=C(c2ccccc2)S/C1=C/C=C1\SC(=S)N(C)C1=O is 7.78 µM (active)

# compound CN(C)c1ccc(/C=c2\c3cc([N+](=O)[O-])ccc3n3c2cc(-c2ccccc2)[n+]3C)cc1 ; its IC50 = 4.31 µM (active)

----------
Below: a set of entries, each annotated with reported EC50.
Test: viability of HCT116 lacking mutant beta-catenin – cell-based, human colon tumor, dose response (AID 1045);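 note: HCT116 colon tumor cells with beta catenin knocked out; cells exposed to compound for 60 hours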
Type: functional
Calls of active or inactive are those of the source.

Past entries and their recorded results:
COMPOUND: O=C(/C=C/c1cccc([N+](=O)[O-])c1)c1cccs1
EC50: 10.9 µM (active)

COMPOUND: Cc1ccc(-n2nnnc2C(Cl)(Cl)c2nnnn2-c2ccc(C)cc2)cc1
EC50: 9.11 µM (active)

COMPOUND: CCCCNS(=O)(=O)c1ccc(NC(=O)C(Sc2ccccc2)c2ccccc2)cc1 (stereo not drawn)
EC50: 12.2 µM (active)

COMPOUND: O=C(c1cc(C2CC2)nc2ccc(Br)cc12)N1N=C(C(F)F)CC1(O)C(F)F (stereo not drawn)
EC50: 13.9 µM (active)

COMPOUND: CC(C)CNC(=O)c1c(N)n(Cc2ccc3c(c2)OCO3)c2nc3ccccc3nc12
EC50: 16.3 µM (active)

Reported EC50 of COc1ccc(-c2cc(=O)oc3cc(OCC(=O)c4cccc([N+](=O)[O-])c4)ccc23)cc1 : 21.8 µM (active)

The compound identified as CC1=C(C)/C(=N/OC(=O)c2cccc([N+](=O)[O-])c2)C=CC1=O registered its EC50 at 9.24 µM (active)

response.value for COc1cc(-c2nc(-c3ccc4c(c3)-c3ccccc3S4(=O)=O)c(-c3ccccc3)[nH]2)cc(OC)c1O (field: EC50) = 19.8 µM (active)

----------
Biological target: UniProt:P38532
Sequence (P38532 whole entry): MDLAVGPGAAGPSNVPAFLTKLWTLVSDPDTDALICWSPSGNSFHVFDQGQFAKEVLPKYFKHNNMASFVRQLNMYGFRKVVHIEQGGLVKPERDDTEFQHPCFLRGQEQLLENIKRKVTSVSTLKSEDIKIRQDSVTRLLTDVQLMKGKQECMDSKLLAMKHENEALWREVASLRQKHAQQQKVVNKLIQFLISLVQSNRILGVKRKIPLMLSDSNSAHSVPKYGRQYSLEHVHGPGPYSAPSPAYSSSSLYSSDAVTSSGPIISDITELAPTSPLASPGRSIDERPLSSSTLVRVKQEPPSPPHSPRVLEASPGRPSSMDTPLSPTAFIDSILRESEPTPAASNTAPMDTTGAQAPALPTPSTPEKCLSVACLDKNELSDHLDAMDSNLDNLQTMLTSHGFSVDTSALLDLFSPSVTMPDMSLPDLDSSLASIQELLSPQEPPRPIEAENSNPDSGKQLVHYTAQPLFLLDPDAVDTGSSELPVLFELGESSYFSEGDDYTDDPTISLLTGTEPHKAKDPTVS
Experiment: enhancement of HSF1-driven luciferase signal – cell-based, NIH3T3, luminescence, dose retest, confirmation (AID 435004);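 note: stress induced by proteasome inhibitor MG132 added 30 min after compound; luciferase reporter driven by HSF1 response element in NIH3T3 cells; actives raise luminescence as potentiators of the MG132 stress response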
Type: functional
The source made the active and inactive calls.
Output constraint: value belongs to active, inactive

Examples with answers:
COMPOUND: Cc1ccccc1Cn1nc(C)c(NC(=O)C2c3ccccc3Oc3ccccc32)c1C
TARGET_DESC: UniProt:P38532
CLASS_ASSIGNMENT: inactive

COMPOUND: CCCCn1c(SCC(=O)c2ccc(O)c(O)c2)nc2ccsc2c1=O
TARGET_DESC: UniProt:P38532
CLASS_ASSIGNMENT: active

COMPOUND: Cc1cccc(NCc2nc3ccccc3n2C)c1
TARGET_DESC: UniProt:P38532
CLASS_ASSIGNMENT: active

Request: Answer briefly: the call reported for O=C(O)CCn1[nH]c(=O)ccc1=O in this assay.
Result: inactive

Request: For this compound, state the assay outcome: CCn1c(SC)nnc1C1CCCN(CC(=O)Nc2ccccc2N2CCOCC2)C1 (stereo not drawn)
Result: inactive

Request: Hi team, can someone confirm the assay call for COc1cc(-c2nc(-c3ccccc3)c(-c3ccc4c(c3)-c3ccccc3S4(=O)=O)[nH]2)cc(OC)c1O ?
Result: active

Request: Could you check what this test reported for Cc1cc(NC(=O)Cn2cnc3sc(C)c(-c4ccccc4)c3c2=O)no1 ?
Result: inactive

Request: Record request — test call for O=C(CSc1nnc2c(Cl)cc(C(F)(F)F)cn12)N(Cc1ccccc1)Cc1ccccc1
Result: inactive

Request: Kindly provide the recorded test outcome for the following compound: COc1ccc(Cl)cc1NC(=O)CCc1nc(-c2ccccc2F)no1
Result: inactive

Request: Called result for O=C(CSc1cccc2cccnc12)N/N=C/c1cccnc1
Result: active

Request: Status in this test for COc1ccc(C2Nc3ccccc3C(=O)N2NS(=O)(=O)c2ccc(C)cc2)cc1 (stereo not drawn) ?
Result: inactive

Request: // return assay outcome for C=CCN1C(=O)C(Cc2ccc(OCC)cc2)S/C1=N/c1ccc(C(=O)O)cc1 (stereo not drawn)
Result: inactive

Request: # fetch the recorded call for COCCOC(=O)C1=C(C)N=C(C)/C(=C(/O)OCCOC)C1/C=C/c1ccccc1OC (stereo not drawn) here
Result: active

Request: Write down the call the test reported for this compound. Item: CCC1CCC2(CC1)SCC(=O)N2c1ccccc1 (stereo not drawn)
Result: inactive

Request: Look up the recorded call for CCN(CCCNC(=O)COc1cc(=O)n(C)c2ccccc12)c1cccc(C)c1 in this test.
Result: inactive

From: ChEMBL document CHEMBL1201862
